Biological target: Streptavidin (Streptomyces avidinii)
Assay: streptavidin binders on small-molecule microarray, primary screen, artefact control for SMM compound annotation, biophysical, 635/667 nm fluorescence (AID 1147);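 further: signal reflects streptavidin binding to arrayed compounds as a control protein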
Conditions: streptavidin binding, higher = more signal
Tick satisfied if composite z-score is 0.4 or greater. Tick not satisfied if composite z-score is less than 0.4.

Req: Entry OCCCc1cc[n+](Cc2cc3c(cc2Br)OCO3)cc1 : is its composite z-score no less than 0.4?
Resp: not satisfied

Req: Entry [N-]=[N+]=NCc1ccccc1[C@H]1OC(c2ccc(OCCCO)cc2)=N[C@@]1(Cc1ccccc1N=[N+]=[N-])C(=O)N1CCOCC1 : is its composite z-score no less than 0.4?
Resp: satisfied

Req: Entry C=CCNC(=O)[C@H]1[C@@H]2C(=O)O[C@@H](c3ccccc3)[C@@H](c3ccccc3)N2[C@@H](c2ccc(OCCO)cc2)[C@]12C(=O)Nc1ccc(C#Cc3ccc(OC)cc3)cc12 : is its composite z-score no less than 0.4?
Resp: satisfied

Req: Entry COc1ccc(NN2C(C(O)c3ccccc3)C=CC3C(=O)N(C4CCCCC4)C(=O)C32)cc1 (configuration not stated) : is its composite z-score no less than 0.4?
Resp: satisfied

Req: Entry COc1cc2c(cc1O)C(C)N(Cc1sc3ccccc3c1Cl)CC2 (configuration not stated) : is its composite z-score no less than 0.4?
Resp: not satisfied

Req: Entry COCCOC(=O)N1C(=O)[C@@]2(c3ccccc31)[C@H](C(=O)Nc1nc3ccccc3s1)[C@H]1C(=O)O[C@H](c3ccccc3)[C@H](c3ccccc3)N1[C@@H]2c1ccccc1OCCO : is its composite z-score no less than 0.4?
Resp: satisfied

* * *

Test: small-molecule microarray binders of probe aDKK1, primary screen, biochemical, biotinylated probe, 635/667 nm fluorescence (AID 1099);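 further: score merges 667nm spot fluorescence with signal to noise across triplicate slides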
Conditions: higher = more signal
Tick 1 if composite z-score is 0.9 or greater. Tick -1 if composite z-score is less than 0.9.

Req: Entry COCCCNC(=O)[C@]1(Cc2ccccc2CN=[N+]=[N-])N=C(c2ccc(OCCCO)cc2)O[C@@H]1c1ccccc1N=[N+]=[N-] : is its composite z-score no less than 0.9?
Resp: 1

Req: Entry CC(C)(C)OC(=O)CC[C@@]1(C(=O)N2CCOCC2)N=C(c2ccc(OCCCO)cc2)O[C@@H]1c1ccccc1CN=[N+]=[N-] : is its composite z-score no less than 0.9?
Resp: 1

Req: Entry COc1cc(Cc2cc3c(c(CCc4ccccc4)n2)[Si](C(C)C)(C(C)C)O[C@H]3c2ccccc2)cc(OC)c1OC : is its composite z-score no less than 0.9?
Resp: -1

Req: Entry O=C1NC(=O)C2C1C=CC(C(O)C(O)CO)N2Nc1ccccn1 (configuration not stated) : is its composite z-score no less than 0.9?
Resp: -1

Req: Entry CO[C@H]1O[C@H](CO)[C@@H](OC(=O)CCc2ccccc2)[C@@H]2OC(=O)[C@@H](Cc3ccc4ccccc4c3)C/C=C/C[C@H](Cc3ccc4ccccc4c3)C(=O)O[C@@H]12 : is its composite z-score no less than 0.9?
Resp: -1

Req: Entry CN1C(=O)C2C=CC(C(O)c3cccs3)N(N(c3ccccc3)c3ccccc3)C2C1=O (configuration not stated) : is its composite z-score no less than 0.9?
Resp: -1

* * *

Assay: P. aeruginosa biofilm formation inhibitors, primary screen, strain PAO1, LB-PBS medium, absorbance 600 nm (AID 1176); further: test concentration not given here
Conditions: P. aeruginosa PAO1 growth/biofilm, A600, 12 h; higher = more signal
Active and inactive are the calls of the source. How the calls were made is not given here.
assay.readout: z-score

Req: Form field: reported z-score of CC[C@@H](O[Si](C#C[Si](C(C)C)(C(C)C)C(C)C)(C(C)C)C(C)C)c1cn(Cc2cccc(Cl)c2)nn1
Resp: 0.313 (inactive)

Req: Form field: reported z-score of O=C(NCCN1CCOCC1)[C@@H]1c2ccccc2C(=O)N(CC23CC4CC(CC(C4)C2)C3)[C@H]1c1ccc(CO)cc1
Resp: -0.121 (inactive)

Req: Form field: reported z-score of CN(C)CCCCCCNC(=O)[C@@H]1C[C@@H]2C(=O)N[C@@H](CCCC[N+](C)(C)C)C(=O)N2[C@@H]1c1cccc(OCCO)c1
Resp: 0.0472 (inactive)

Req: Form field: reported z-score of CCCCCN1CC=CC23O[C@@H]4/C=C\CCCOC(=O)C4[C@H]2C(=O)N(CCCCCO)[C@@H]3C1=O (some centres undefined)
Resp: 0.0962 (inactive)

* * *

Assay: binders of probe aFST on microarray, primary screen, stem cell growth factor project, biochemical, small-molecule microarray, fluorescence 635/667 (AID 1086);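 further: score merges 667 nm fluorescence with signal-to-noise of each printed compound spot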
Settings: higher = more signal
For each of the compounds below, state its composite z-score.
Output: the number by itself.

Req: Form field: reported composite z-score of COc1ccc([Si](C)(C)[C@H]2[C@H](CCO)O[C@@]3(C(=O)N(Cc4ccccc4)c4ccc(NC(=O)[C@H](C)O)cc43)[C@@H]2C)cc1
Resp: 0.239

Req: Form field: reported composite z-score of O=C1c2ccccc2[C@@]2(Cc3ccccc3N(CC(F)(F)F)C2=O)[C@H](c2ccc(CO)cc2)N1Cc1ccccc1
Resp: -0.0539

Req: Form field: reported composite z-score of C=C(CCCC)/C(=C/C[C@@H](OC(C)=O)c1ccc(OCCO)cc1)c1cc(C(=O)OC)ccc1OC
Resp: 0.0501

Req: Form field: reported composite z-score of COCCOC(=O)N1C(=O)[C@@]2(c3cc(C#CCCO)ccc31)[C@H](C(=O)N1CCN(c3ncccn3)CC1)[C@H]1C(=O)O[C@H](c3ccccc3)[C@H](c3ccccc3)N1[C@@H]2c1ccc(OCCO)cc1
Resp: 0.832

Req: Form field: reported composite z-score of COc1ccc([Si](C)(C)[C@@H]2[C@@H](CC(=O)N3CCC[C@H]3CO)O[C@]3(C(=O)N(Cc4cccc(N5C(=O)c6cccc7cccc5c67)c4)c4ccccc43)[C@H]2C)cc1
Resp: 0.019

Req: Form field: reported composite z-score of CS(=O)(=O)CCOC(=O)C1=CC(CCCO)=CC(C2CC2)N(Cc2sc3ccccc3c2Cl)C=C1C(=O)OCCS(C)(=O)=O (centres undefined)
Resp: 0.903

Req: Form field: reported composite z-score of COC(=O)[C@@]1(Cc2ccc(F)cc2)[C@H]2c3cc(C(=O)N(C)C)n(CCF)c3C[C@H]2CN1C(=O)c1ccccc1
Resp: 0.329

Req: Form field: reported composite z-score of COC(=O)C1=CC(CCCO)=CC(c2ccc(CN3CCCC3)cc2)N(C)C=C1C(=O)OC (centres undefined)
Resp: 0.989

Req: Form field: reported composite z-score of CO[C@H]1O[C@H](CO)[C@@H](OC(=O)Nc2cccc(F)c2)[C@H](OC(=O)Nc2ccc3c(c2)OCO3)[C@@H]1OC(=O)Nc1ccc2c(c1)OCO2
Resp: 0.986

Req: Form field: reported composite z-score of CN1C(=O)C2C(C1=O)C1C=C(CCCO)C2C(C2CC2)N1C (centres undefined)
Resp: -0.196

Req: Form field: reported composite z-score of CC[C@@H](O[Si](C#C[Si](C(C)C)(C(C)C)C(C)C)(C(C)C)C(C)C)c1cn([C@H](C)c2ccccc2)nn1
Resp: 0.129

Req: Form field: reported composite z-score of CC(C)[Si](C#Cc1ccccc1)(O[C@H](c1ccccc1)c1cn(Cc2ccccc2)nn1)C(C)C
Resp: 0.0643

Req: Form field: reported composite z-score of Cc1ccc(S[C@]2(C(=O)NCc3ccccc3)CC(=O)N(Cc3ccccc3C(F)(F)F)[C@@H]2c2ccc(CO)cc2I)cc1
Resp: -0.319

Req: Form field: reported composite z-score of COCCCNC(=O)[C@]1(Cc2ccccc2N=[N+]=[N-])N=C(c2ccc(OCCCO)cc2)O[C@@H]1c1ccccc1
Resp: 1.14

* * *

Assay: binders of probe aHhip on microarray, primary screen, stem cell growth factor project, biochemical, small-molecule microarray, fluorescence 635/667 (AID 1087);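 further: score merges spot fluorescence at 667nm with spot signal to noise ratio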
Details: higher = more signal
assay.readout: composite z-score

Req: Form field: reported composite z-score of C=CCC(OC(C)=O)[C@@H]1[C@@H](N(Cc2ccc(-c3ccccc3)cc2)C(=O)Cc2ccc(OC)cc2)c2cc(OCCCO)ccc2N1C(=O)Cc1ccc(OC)cc1 (stereo partly specified)
Resp: 0.411

Req: Form field: reported composite z-score of COc1ccc(C(=O)Nc2ccc(CN3C(=O)[C@]4(O[C@H](CC(=O)N(CCO)Cc5ccccc5)[C@@H]([Si](C)(C)c5ccc(OC)cc5)[C@@H]4C)c4ccccc43)cc2)cc1
Resp: -0.0994

Req: Form field: reported composite z-score of C=CCOC(=O)[C@H]1[C@@H]2C(=O)O[C@@H](c3ccccc3)[C@@H](c3ccccc3)N2[C@@H](c2ccc(OCCOC(=O)[C@H]3C[C@H]4C(=O)NCC(=O)N4[C@H]3c3cccc(OCCO)c3)cc2)[C@]12C(=O)Nc1ccc(I)cc12
Resp: 0.28

Req: Form field: reported composite z-score of [N-]=[N+]=NCc1ccccc1[C@H]1OC(c2ccc(OCCCO)cc2)=N[C@@]1(Cc1ccccc1N=[N+]=[N-])C(N)=O
Resp: -0.156

Req: Form field: reported composite z-score of Cc1ccc(S[C@]2(C(=O)NCc3ccccc3)CC(=O)N(Cc3ccccc3Cl)[C@@H]2c2ccc(CO)cc2)cc1
Resp: -0.353

Req: Form field: reported composite z-score of O=C1NC(=O)C2C1C=CC(C(O)C(c1ccccc1)c1ccccc1)N2Nc1ccccn1 (stereo unspecified)
Resp: -0.0959
